Biological target: Vasopressin V1a receptor (Homo sapiens)
Assay: Antagonist activity at human Gq5s-coupled V1a receptor expressed in CHO cells assessed as inhibition of vasopressin-induced calcium flux preincubated for 20 mins followed by vasopressin addition and measured for 5 mins by fluo-4-AM dye based FLIPR assay
Format: functional, cell-based
recorded endpoint: pKb

* CN(C)S(=O)(=O)N1Cc2cc(Cl)ccc2-n2c(nnc2[C@H]2CC[C@H](Oc3ccccc3)CC2)C1 | 9.5

Field request: pKb | item: CN1Cc2cc(Cl)ccc2-n2c(nnc2[C@H]2CC[C@H](Oc3ccccc3)CC2)C1
9.5

Now the same for CN1Cc2cc(Cl)ccc2-n2c(nnc2N2CCC3(CC2)COCc2ccccc23)C1
9.3

Now the same for CN1Cc2cc(Cl)ccc2-n2c(nnc2N2CCC3(CC2)SCc2ccccc23)C1
9
